Here, each record is paired with measured %Inh data.
- Test system: BRAF;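 note: KINOMEscan kinase panel screen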
- Conditions used: concentration: 1 μM,replicates: in singlicate; n = 1
Measurement kind: %Inh (%)

{"Compound": "CC(=O)Nc1ccc(-c2cc3ncnc(SCC(=O)O)c3s2)cc1", "Measurement kind": "%Inh", "Recorded number": 4}
{"Compound": "O=C1NCCc2[nH]c(-c3ccncc3)cc21", "Measurement kind": "%Inh", "Recorded number": 0}
{"Compound": "CN(c1ccc2c(c1)nc(NCc1ccc(F)cc1)n2C)c1ccnc(Nc2ccc(CS(C)(=O)=O)cc2)n1.Cl [GW813244]", "Measurement kind": "%Inh", "Recorded number": 96.8}
{"Compound": "Nc1nccc(-c2ccc3c(N)n[nH]c3c2)n1 [GSK1034945]", "Measurement kind": "%Inh", "Recorded number": 0}
{"Compound": "CCN1CCN(CCCC(=O)Nc2n[nH]c3nc(-c4ccc(O)cc4)c(Br)cc23)CC1 [SB-731579]", "Measurement kind": "%Inh", "Recorded number": 81}
{"Compound": "CS(=O)c1ccc(-c2coc3ccc(-c4n[nH]c(=O)o4)cc23)cc1 (stereo not shown)", "Measurement kind": "%Inh", "Recorded number": 12}
{"Compound": "CCOC(=O)N1CCC(n2cnc(-c3ccc(F)cc3)c2-c2ccnc(N)n2)CC1 [SB-219952]", "Measurement kind": "%Inh", "Recorded number": 14}
{"Compound": "COc1cc2c(Nc3ccc(NC(=O)c4ccccc4)cc3)ncnc2cc1OCCCN1CCOCC1 [GSK301329]", "Measurement kind": "%Inh", "Recorded number": 0}
{"Compound": "O=C(Nc1ccc(Oc2ccc3nc(NC(=O)C4CC4)cn3n2)c(F)c1)c1cccn(-c2ccccc2)c1=O", "Measurement kind": "%Inh", "Recorded number": 41}
{"Compound": "C[C@@H]1CCN(C(=O)N2CCCC2)C[C@@H]1N(C)c1ncnc2[nH]ccc12", "Measurement kind": "%Inh", "Recorded number": 11}
{"Compound": "COC(=O)Nc1nc2cc(Oc3ccc(NC(=O)Nc4cc(C(F)(F)F)ccc4Cl)cc3)ccc2[nH]1.Cl [GW697465]", "Measurement kind": "%Inh", "Recorded number": 41}
{"Compound": "CS(=O)(=O)c1cccc(CNc2nc(Nc3ccc4c(c3)[C@@H]3C[C@@H]4CNC3=O)ncc2C(F)(F)F)c1", "Measurement kind": "%Inh", "Recorded number": 0}
{"Compound": "CN1CCN(CCCNc2nccc(-c3c(-c4ccc(F)cc4)nn4cc(C(N)=O)ccc34)n2)CC1 [GW622475]", "Measurement kind": "%Inh", "Recorded number": 49}
{"Compound": "COc1cc2ncn(-c3cc(OCC4CCCCC4)c(C(N)=O)s3)c2cc1OC [GSK204559]", "Measurement kind": "%Inh", "Recorded number": 0}
{"Compound": "O=C(Nc1ccccc1)c1cccc(Oc2ccc3nccn3n2)c1", "Measurement kind": "%Inh", "Recorded number": 3}
{"Compound": "Cl.Nc1n[nH]c2cc(-c3ccccn3)ccc12 [GSK2189892]", "Measurement kind": "%Inh", "Recorded number": 0}
{"Compound": "Cc1ccc(Nc2ccnc(Nc3ccc4c(c3)CS(=O)(=O)C4)n2)cc1O.Cl [GW579362]", "Measurement kind": "%Inh", "Recorded number": 77}
{"Compound": "CN1CCN(CCNc2nc3cc(Oc4ccc(NC(=O)Nc5cc(C(F)(F)F)ccc5F)cc4)ccc3[nH]2)CC1.Cl.Cl [GW768504]", "Measurement kind": "%Inh", "Recorded number": 0}
{"Compound": "Cc1nnc(-c2ccc3occ(-c4ccc(S(C)=O)cc4)c3n2)o1 (stereo not shown)", "Measurement kind": "%Inh", "Recorded number": 0}
{"Compound": "CNC(=O)c1ccccc1Nc1nc(Nc2cccc(CS(C)(=O)=O)c2)ncc1C.O=CO [GSK1520489]", "Measurement kind": "%Inh", "Recorded number": 59}
{"Compound": "O=C(Nc1cccc(Oc2ccc3nccn3n2)c1)Nc1cccc(C(F)(F)F)c1", "Measurement kind": "%Inh", "Recorded number": 88}
{"Compound": "NC(=O)c1ccc(-c2cc3ncnc(SCC(=O)O)c3s2)cc1", "Measurement kind": "%Inh", "Recorded number": 0}
{"Compound": "C[C@@H](Oc1cc(-n2cnc3cc(-c4ccncc4)ccc32)sc1C(N)=O)c1ccccc1Cl [GSK479719]", "Measurement kind": "%Inh", "Recorded number": 1}
{"Compound": "OCCn1cc(-c2cnc3nnn(Cc4ccc5ncccc5c4)c3n2)cn1", "Measurement kind": "%Inh", "Recorded number": 1}
{"Compound": "CC(C(=O)NC1CCN(c2ccnc(Nc3ccc(F)cc3)n2)C1)c1ccc(Cl)cc1 (stereo not shown) [GSK1379713]", "Measurement kind": "%Inh", "Recorded number": 0}
{"Compound": "O=C(Nc1n[nH]c2cc(-c3ccco3)ccc12)C1CC1 [SB-737447]", "Measurement kind": "%Inh", "Recorded number": 0}
{"Compound": "CS(=O)(=O)Nc1ccc(-c2ccnc3[nH]ccc23)cc1 [GSK993273]", "Measurement kind": "%Inh", "Recorded number": 0}
{"Compound": "CCn1c(-c2nonc2N)nc2cncc(CNC3CCNCC3)c21.Cl [SB-747651]", "Measurement kind": "%Inh", "Recorded number": 10}
{"Compound": "O=c1[nH]cc(-c2ccc(O)cc2)c2sc(-c3ccncc3)cc12 [GSK1033723]", "Measurement kind": "%Inh", "Recorded number": 1}
{"Compound": "Cc1ccc2c(-c3ccnc(Nc4ccc(C(F)(F)F)cc4)n3)cnn2n1 [GW819776]", "Measurement kind": "%Inh", "Recorded number": 0}
{"Compound": "COc1cccc(OC)c1C(=O)Nc1cccc(-c2nn3ccccc3c2-c2ccnc(Nc3cccc(F)c3)n2)c1 [GSK361065]", "Measurement kind": "%Inh", "Recorded number": 17}
{"Compound": "CC(=O)Nc1nc2cnc(Nc3cc(NC(=O)c4cccc(CC(C)(C)C#N)c4)ccc3C)nc2s1", "Measurement kind": "%Inh", "Recorded number": 99.9}
{"Compound": "COc1cccc(CNC(=O)NC2CCN(c3ccnc(Nc4cc(OC)c(OC)c(OC)c4)n3)C2)c1 (stereo not shown) [GSK1379765]", "Measurement kind": "%Inh", "Recorded number": 0}
{"Compound": "CCNCC(Cc1ccccc1)NC(=O)c1cc(Br)c(-c2ccnc3[nH]ccc23)s1.Cl.Cl (stereo not shown) [GSK1383280]", "Measurement kind": "%Inh", "Recorded number": 0}
